Tested on: MCF7 breast
Experiment: NCI-60 one-dose screen, 48 h (100 = growth as untreated, 0 = no growth, -100 = all killed)
Conditions: 10 µM unless noted
Compounds without any hit were thinned out: in the full panel of roughly 83,000, 20% have a hit.
Listing of entries alongside the reported growth.
Express your answer in %, writing the number without its unit.

Some compounds with known growth results, for comparison:
>>> value_observed("COc1cc2nc(SCc3cc(OC)c(OC)c(OC)c3)n(Cc3ccccc3)c(=O)c2cc1OC")
10.1
>>> value_observed("O=C1CCC/C=C\\C[C@H]2C=CC(=O)/C2=C/C[C@H](C/C=C\\CC(F)(F)F)O1")
6.19
>>> value_observed("O=C(Nc1ccc(I)cc1)c1cccc([N+](=O)[O-])c1O")
7.91

Task item: Need growth, item N#CC1=C(N)OC2=C(C(=O)CCC2)C1c1ccco1 (stereo not given)
Reply: 95.5

Task item: Same lookup for CCc1cccc(C)c1NC(=O)c1sc2nc3c(cc2c1N)C(=O)CCC3 , please.
Reply: 20.3

---

System: MDA-MB-435 melanoma
Experiment: NCI-60 one-dose screen, 48 h (100 = growth as untreated, 0 = no growth, -100 = all killed)
Conditions: 10 µM unless noted
The panel holds about 83,000 compounds, 20% with a hit somewhere; the sample as a whole holds those more often.
Value type: growth (%)
Express your answer in %, writing the number without its unit.

Some compounds with known growth results, for comparison:
>>> value_observed("COc1cc2oc(-c3cccc(NC(=O)Nc4ccc5c(c4)OCO5)c3)cc(=O)c2c(OC)c1OC")
68.7
>>> value_observed("CNC(=O)c1cc(Oc2ccc3c(c2)sc2nc(-c4ccc(Cl)cc4)cn23)ccn1")
97.7
>>> value_observed("O=S(=O)(NCCCNc1cc(-c2cn(-c3ccccc3)nc2-c2cccc(O)c2)ccn1)c1cccc2ccccc12")
32.8
>>> value_observed("CCCCCCCC/C=C\\CCCCCCCCOc1ccccc1CCOP(=O)(O)OCC[N+](C)(C)C")
92.7
>>> value_observed("COC(=O)c1cc(-c2cccs2)c(C#N)c(N)c1C#N")
104
>>> value_observed("COc1ccc(C(=O)/C=C/c2cccc([N+](=O)[O-])c2)c(OC)c1")
15.2
>>> value_observed("O=C1NC(Cc2c[nH]c3ccccc23)C(=O)N1Cc1ccc(Cl)cc1 (centres undefined)")
92.2
>>> value_observed("c1cc(-c2ccc3c(c2)OCO3)n2nccc2n1")
98.2
>>> value_observed("COc1ccc(/C(=N/O)c2cc(F)c(F)c(OC)c2F)cc1O")
-35.7
>>> value_observed("O=C(/C=C/CN1CCOCC1)Nc1cc2c(Nc3cccc(Cl)c3F)ncnc2cc1OCCOC(F)F")
97.2

Task item: Need growth, item COc1cc(OC)c(C(=O)/C=C/c2cccc(C#N)c2)c(OC)c1
Reply: 7.3

Task item: Same lookup for CCC(c1cccc(Br)c1)C(C(=O)O)c1ccc(OC)cc1 (centres undefined) , please.
Reply: 29.9

Task item: Same lookup for O=C(CN1CCN(c2cc3c(cc2F)c(=O)c(C(=O)O)cn3C2CC2)CC1)Nc1ccc(C(=O)/C=C/c2ccc(Cl)cc2)cc1 , please.
Reply: 101

Task item: Same lookup for Nc1c(C(=O)Nc2c(Cl)cccc2Cl)sc2nc3c(cc12)CCCCC3 , please.
Reply: 9.69

Task item: Same lookup for O=C1Nc2cc(Cl)ccc2/C1=C/c1ccc(N2CCOCC2)s1 , please.
Reply: 102

Task item: Same lookup for COc1ccc(C2CC(c3cccs3)=NN2c2ccc(S(=O)(=O)NC(=O)NCc3cccc(OC)c3)cc2)cc1 (centres undefined) , please.
Reply: 52.3
